Data provenance: patent US20230293469A1

- assayDetails: Oral dose PK of NPT-2042 in rat
- Assay type: in vivo
- conditionDescription: rat, in vivo, oral, 30 mg/kg, rat, oral, dose column 30 mg/kg; individual rats and Mean (N=3); read-out: NPT-2042 concentration, Time 0.50 h
reportedMetric: concentration at 0.5 h
Enter the number, and then the unit.

For reference, reported concentration at 0.5 h for `CCCCNc1cc(C(=O)N(Cc2ccccc2)Cc2ccccc2)cc(S(N)(=O)=O)c1Oc1ccccc1` stands at 2.01 ng/mL

====

- System: Rat Microsomes
- assayDetails: Metabolite screening of NPT-2042 in rat microsomes
- Assay type: in vitro ADME
- conditionDescription: NPT-2042 10 uM, microsomes 1 mg/mL, 1 hour, NADPH regenerating system
reportedMetric: Rat Mic (MS Intensity)
Returns: the value as a bare number; no unit string appended.

Reading of Rat Mic (MS Intensity) for `CCCCNc1cc(C(=O)NCc2ccccc2)cc(S(N)(=O)=O)c1Oc1ccccc1` with Rat Microsomes: 7.96E+07

Reading of Rat Mic (MS Intensity) for `Nc1cc(C(=O)NCc2ccccc2)cc(S(N)(=O)=O)c1Oc1ccccc1` with Rat Microsomes: 1.28E+07

Reading of Rat Mic (MS Intensity) for `CCCCNc1cc(C(=O)N(Cc2ccccc2)Cc2ccccc2)cc(S(N)(=O)=O)c1Oc1ccccc1` with Rat Microsomes: 7.73E+07

Reading of Rat Mic (MS Intensity) for `Nc1cc(C(=O)N(Cc2ccccc2)Cc2ccccc2)cc(S(N)(=O)=O)c1Oc1ccccc1` with Rat Microsomes: 6.53E+07
